Source: ChEMBL document CHEMBL5223075

Each entry below carries its recorded fraction unbound.
- ASSAY TEXT: Protein binding in mouse plasma
- Type: ADME, cell-free
- RUN PARAMETERS: read-out: PPB (converted)
Give only the figure.

Solved entries (count: 2):
LINE NOTATION: Cc1nc2cc(NC(=O)c3cc4sc(N5CCC(C(=O)N(C)C)CC5)nc4s3)ccc2o1
READOUT KIND: fraction unbound
VALUE OBSERVED: 0.036

LINE NOTATION: O=C(Nc1ccc(-c2ccc(F)cn2)cc1)c1cc2sc(NCCN3CCOCC3)nc2s1
READOUT KIND: fraction unbound
VALUE OBSERVED: 0.002

Here's the next entry for you.
For this compound ( Cc1nc2cc(NC(=O)c3cc4sc(N5CCOCC5)nc4s3)ccc2o1 ), measured fraction unbound is 0.001

###

- ASSAY TEXT: Stability in mouse plasma measured after 4 hrs
- Assay type: ADME, cell-free
- RUN PARAMETERS: read-out: Stability
READOUT KIND: remaining at 4 h

For this compound ( Cc1nc2cc(NC(=O)c3cc4sc(N5CCOCC5)nc4s3)ccc2o1 ), measured remaining at 4 h is 74.7%

###

- ASSAY TEXT: Metabolic stability in human liver microsome assessed as phase I mediated metabolite formation by measuring half-life
- Assay type: ADME
- RUN PARAMETERS: microsomes
Each entry below carries its recorded t1/2.

Solved entries (count: 4):
LINE NOTATION: COc1ccc(NC(=O)c2cc3sc(N4CCOCC4)nc3s2)cc1
t1/2: 0.96 h

LINE NOTATION: Cc1nc2cc(NC(=O)c3cc4sc(N(C)CCO)nc4s3)ccc2o1
t1/2: > 1 h

LINE NOTATION: COc1cc(NC(=O)c2cc3sc(N4CCCCC4)nc3s2)cc(OC)c1
t1/2: 0.408 h

LINE NOTATION: Cc1nc2cc(NC(=O)c3cc4sc(N5CCC(C(=O)N(C)C)CC5)nc4s3)ccc2o1
t1/2: > 1 h

Here's the next entry for you.
For this compound ( O=C(Nc1ccc(-c2ccc(F)cn2)cc1)c1cc2sc(NCCN3CCOCC3)nc2s1 ), measured t1/2 is > 1 h

###

Each entry below carries its recorded half-life.
- ASSAY TEXT: Half-life in BALB/c mouse at 10 mg/kg, po by LC-MS analysis
- Format: ADME, organism-based
- RUN PARAMETERS: in vivo
Answer format: numeric, h implied, no suffix.

LINE NOTATION: O=C(Nc1ccc(-c2ccc(F)cn2)cc1)c1cc2sc(NCCN3CCOCC3)nc2s1
ENDPOINT UNIT: h
VALUE OBSERVED: 2.3

Here's the next entry for you.
For this compound ( Cc1nc2cc(NC(=O)c3cc4sc(N5CCC(C(=O)N(C)C)CC5)nc4s3)ccc2o1 ), measured half-life is 0.99
